The reported measurements were obtained from patent US20150368338A1.

Examples of binders with documented Kd follow.
study_system: T1, IFN-αWA (human, UniProt P05015 24-189)
T1 construct: also called IFN-α16; alpha WA
experiment_summary: ProteOn, one antigen concentration
The response must be a number in nM with no trailing unit.

Consider the following illustrative entries.
binder="IFWM3329 (antibody, V domains shown, VH IFWH591, VL IFWL1067; converted mAb; also called IFWB3064) VH: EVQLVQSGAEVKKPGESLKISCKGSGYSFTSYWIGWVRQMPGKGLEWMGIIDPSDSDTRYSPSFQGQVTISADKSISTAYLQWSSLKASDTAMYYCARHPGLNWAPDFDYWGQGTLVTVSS VL: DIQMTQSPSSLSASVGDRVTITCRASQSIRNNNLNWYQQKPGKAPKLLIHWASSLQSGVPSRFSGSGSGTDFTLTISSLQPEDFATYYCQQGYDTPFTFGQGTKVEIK" quantitative_result=0.173
binder="IFWM3302 (antibody, V domains shown, VH IFWH591, VL IFWL991; converted mAb; also called IFWB3037) VH: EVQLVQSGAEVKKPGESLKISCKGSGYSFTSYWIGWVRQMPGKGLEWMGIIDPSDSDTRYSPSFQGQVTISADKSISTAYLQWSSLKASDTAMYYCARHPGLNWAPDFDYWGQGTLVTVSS VL: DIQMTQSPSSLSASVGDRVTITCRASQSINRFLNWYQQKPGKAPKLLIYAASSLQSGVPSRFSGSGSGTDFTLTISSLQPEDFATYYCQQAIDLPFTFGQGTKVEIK" quantitative_result=0.168
binder="IFWM3337 (antibody, V domains shown, VH IFWH591, VL IFWL1087; converted mAb; also called IFWB3072) VH: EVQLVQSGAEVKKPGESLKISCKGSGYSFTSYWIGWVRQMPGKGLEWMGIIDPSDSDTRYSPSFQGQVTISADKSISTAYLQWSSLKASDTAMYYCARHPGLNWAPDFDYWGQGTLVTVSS VL: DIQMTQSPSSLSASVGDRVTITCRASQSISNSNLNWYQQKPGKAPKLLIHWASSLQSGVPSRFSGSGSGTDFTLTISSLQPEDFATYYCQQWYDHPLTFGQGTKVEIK" quantitative_result=0.037

Q) Give recorded Kd. IFWM3332 (antibody, V domains shown, VH IFWH591, VL IFWL1074; converted mAb; also called IFWB3067) VH: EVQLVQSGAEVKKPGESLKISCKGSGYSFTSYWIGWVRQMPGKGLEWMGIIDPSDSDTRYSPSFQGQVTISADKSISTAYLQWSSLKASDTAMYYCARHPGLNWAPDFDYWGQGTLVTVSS VL: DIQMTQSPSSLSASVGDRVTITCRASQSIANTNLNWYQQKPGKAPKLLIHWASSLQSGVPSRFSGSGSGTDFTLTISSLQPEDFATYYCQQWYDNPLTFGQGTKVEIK
A) 0.076

Q) // fetch Kd given entry IFWM3304 (antibody, V domains shown, VH IFWH591, VL IFWL997; converted mAb; also called IFWB3039) VH: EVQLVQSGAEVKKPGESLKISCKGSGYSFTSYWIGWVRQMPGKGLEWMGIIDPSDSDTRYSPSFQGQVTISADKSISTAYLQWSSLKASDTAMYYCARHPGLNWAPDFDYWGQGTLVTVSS VL: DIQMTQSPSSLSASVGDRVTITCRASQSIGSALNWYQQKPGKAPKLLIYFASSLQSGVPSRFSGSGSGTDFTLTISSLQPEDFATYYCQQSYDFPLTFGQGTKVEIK
A) 0.092
